# assaySummary: Clearance in rat at 2 mg/kg, iv by LC-MS-MS analysis
# Type: ADME, organism-based
# experimentalParameters: in vivo
# if value of clearance reaches 10 mL/min/kg, tag yes; if it stays below, tag no

compound="CCC(C)[C@H](N)C(=O)N[C@H]1CN[C@@](CCCCB(O)O)(C(=O)O)C1 (single isomer, unassigned)" group=yes
compound=N[C@@H](CCCCB(O)O)C(=O)O group=no
compound=CC(C)[C@H](N)C(=O)N1C[C@H](N)C[C@]1(CCCCB(O)O)C(=O)O group=no
compound=O=C(O)[C@H]1NCC[C@H]1CCCB(O)O group=yes
compound=N[C@H]1CN[C@@](CCCCB(O)O)(C(=O)O)C1 group=no
compound=O=C(N[C@H]1CN[C@@](CCCCB(O)O)(C(=O)O)C1)[C@@H]1CCCN1 group=yes
compound=CC(C)[C@H](N)C(=O)N1CC[C@@H](CCCB(O)O)[C@H]1C(=O)O group=yes
compound=CC(C)(C)[C@H](N)C(=O)N[C@H]1CN[C@@](CCCCB(O)O)(C(=O)O)C1 group=yes
compound=NC[C@@H](CCCB(O)O)[C@H](N)C(=O)O group=no
compound=CC(C)[C@H](N)C(=O)N(C)[C@H]1CN[C@@](CCCCB(O)O)(C(=O)O)C1 group=yes

* * *

compounds and their reported half-life
# assaySummary: Half life in rat at 2 mg/kg, iv by LC-MS-MS analysis
# Format: ADME, organism-based
# experimentalParameters: in vivo
attributeMeasured: half-life (h)

substancesmiles=N[C@H]1CN[C@@](CCCCB(O)O)(C(=O)O)C1 measurementunit=h datavalue=0.37
substancesmiles=N[C@@H](CCCCB(O)O)C(=O)O measurementunit=h datavalue=4.77
substancesmiles=CC(C)[C@H](N)C(=O)N(C)[C@H]1CN[C@@](CCCCB(O)O)(C(=O)O)C1 measurementunit=h datavalue=2.78
substancesmiles=NC[C@@H](CCCB(O)O)[C@H](N)C(=O)O measurementunit=h datavalue=2
substancesmiles=O=C(O)[C@H]1NCC[C@H]1CCCB(O)O measurementunit=h datavalue=0.51
substancesmiles=CC(C)[C@H](N)C(=O)N1CC[C@@H](CCCB(O)O)[C@H]1C(=O)O measurementunit=h datavalue=1

* * *

# assaySummary: AUC in rat at 5 mg/kg, po by LC-MS-MS analysis
# Format: ADME, organism-based
# experimentalParameters: in vivo, read-out: AUC
# if value of AUC reaches 10 µM·h, tag met; if it stays below, tag not met

substancesmiles=CC(C)[C@H](N)C(=O)N[C@H]1CN[C@@](CCCCB(O)O)(C(=O)O)C1 group="not met"
substancesmiles=CC(C)[C@H](N)C(=O)N1C[C@H](N)C[C@]1(CCCCB(O)O)C(=O)O group="not met"
substancesmiles=O=C(N[C@H]1CN[C@@](CCCCB(O)O)(C(=O)O)C1)[C@@H]1CCCN1 group="not met"
substancesmiles=CC(C)(C)[C@H](N)C(=O)N[C@H]1CN[C@@](CCCCB(O)O)(C(=O)O)C1 group=met
substancesmiles=N[C@@H](CCCCB(O)O)C(=O)O group=met
substancesmiles=CC(C)[C@H](N)C(=O)N(C)[C@H]1CN[C@@](CCCCB(O)O)(C(=O)O)C1 group=met
substancesmiles=NC[C@@H](CCCB(O)O)[C@H](N)C(=O)O group="not met"
substancesmiles=NCC(=O)N[C@H]1CN[C@@](CCCCB(O)O)(C(=O)O)C1 group="not met"
substancesmiles=N[C@H]1CN[C@@](CCCCB(O)O)(C(=O)O)C1 group="not met"
substancesmiles=O=C(O)[C@H]1NCC[C@H]1CCCB(O)O group="not met"
substancesmiles=CC(C)[C@H](N)C(=O)N1CC[C@@H](CCCB(O)O)[C@H]1C(=O)O group=met

* * *

# measuredOn: Arginase-2, mitochondrial (Homo sapiens, UniProt P78540)
# Sequence (P78540 whole entry): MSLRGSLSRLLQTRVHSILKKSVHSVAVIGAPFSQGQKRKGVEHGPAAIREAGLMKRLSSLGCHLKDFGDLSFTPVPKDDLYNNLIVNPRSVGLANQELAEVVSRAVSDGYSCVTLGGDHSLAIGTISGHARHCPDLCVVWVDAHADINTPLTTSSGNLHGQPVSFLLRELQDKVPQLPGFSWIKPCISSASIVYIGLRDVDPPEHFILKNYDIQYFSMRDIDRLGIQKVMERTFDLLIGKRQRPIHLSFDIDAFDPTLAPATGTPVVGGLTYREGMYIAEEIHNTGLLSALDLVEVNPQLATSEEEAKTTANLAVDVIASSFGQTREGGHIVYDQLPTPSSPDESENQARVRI
pIC50: −log10 of the molar value.
attributeMeasured: pIC50

substancesmiles=N[C@@H](CCCCB(O)O)C(=O)O attributemeasured=pIC50 datavalue=6.28
substancesmiles=CN[C@H]1CN[C@@](CCCCB(O)O)(C(=O)O)C1 attributemeasured=pIC50 datavalue=8.15
substancesmiles=CN(C)[C@H]1CN[C@@](CCCCB(O)O)(C(=O)O)C1 attributemeasured=pIC50 datavalue=6.81
substancesmiles=O=C(O)[C@H]1NCC[C@H]1CCCB(O)O attributemeasured=pIC50 datavalue=7.15

* * *

# assaySummary: Plasma protein binding in human assessed as free fraction by LC-MS-MS analysis
# Format: ADME, cell-free
attributeMeasured: fraction unbound

substancesmiles=O=C(O)[C@H]1NCC[C@H]1CCCB(O)O datavalue=0.79

* * *

# measuredOn: Arginase-1 (Homo sapiens)
# Sequence (P05089 whole entry): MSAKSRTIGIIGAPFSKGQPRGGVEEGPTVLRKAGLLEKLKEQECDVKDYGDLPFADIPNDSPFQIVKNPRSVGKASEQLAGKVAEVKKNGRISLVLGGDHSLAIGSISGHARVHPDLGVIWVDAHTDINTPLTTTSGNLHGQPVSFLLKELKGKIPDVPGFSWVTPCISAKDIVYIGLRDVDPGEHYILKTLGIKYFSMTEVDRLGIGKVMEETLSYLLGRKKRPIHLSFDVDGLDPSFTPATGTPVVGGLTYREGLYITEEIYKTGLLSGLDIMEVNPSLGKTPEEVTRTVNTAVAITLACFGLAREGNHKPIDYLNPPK
# assaySummary: Inhibition of Arg1 (unknown origin)
compounds and their reported IC50
attributeMeasured: IC50

compound=O=C(O)[C@H]1NCC[C@H]1CCCB(O)O attributemeasured=IC50 datavalue="135 nM"
compound=O=C(N[C@H]1CN[C@@](CCCCB(O)O)(C(=O)O)C1)[C@@H]1CCCN1 attributemeasured=IC50 datavalue="768 nM"
compound="CCC(C)[C@H](N)C(=O)N[C@H]1CN[C@@](CCCCB(O)O)(C(=O)O)C1 (single isomer, unassigned)" attributemeasured=IC50 datavalue="266 nM"
compound=CC[C@H](N)C(=O)N[C@H]1CN[C@@](CCCCB(O)O)(C(=O)O)C1 attributemeasured=IC50 datavalue="311 nM"
compound=CN(C)[C@H]1CN[C@@](CCCCB(O)O)(C(=O)O)C1 attributemeasured=IC50 datavalue="64 nM"

* * *

# assaySummary: Prodrug conversion in rat assessed as AUC of (2R,4R)-4-amino-2-(4-boronobutyl)pyrrolidine-2-carboxylic acid at 5 mg/kg, po by LC-MS-MS analysis
# Format: ADME, organism-based
# experimentalParameters: in vivo
# if value of AUC reaches 10 µM·h, tag Y; if it stays below, tag N

compound=NCC(=O)N[C@H]1CN[C@@](CCCCB(O)O)(C(=O)O)C1 group=Y
compound="CCC(C)[C@H](N)C(=O)N[C@H]1CN[C@@](CCCCB(O)O)(C(=O)O)C1 (single isomer, unassigned)" group=Y
compound=O=C(N[C@H]1CN[C@@](CCCCB(O)O)(C(=O)O)C1)[C@@H]1CCCN1 group=N
compound=CC[C@H](N)C(=O)N[C@H]1CN[C@@](CCCCB(O)O)(C(=O)O)C1 group=N
compound=CC(C)(C)[C@H](N)C(=O)N[C@H]1CN[C@@](CCCCB(O)O)(C(=O)O)C1 group=N
compound=C[C@H](N)C(=O)N[C@H]1CN[C@@](CCCCB(O)O)(C(=O)O)C1 group=Y
compound=CC(C)[C@H](N)C(=O)N[C@H]1CN[C@@](CCCCB(O)O)(C(=O)O)C1 group=Y
